Biological target: T1, O8-bA
T1 chain: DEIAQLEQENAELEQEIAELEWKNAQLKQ
Experiment: two-hybrid library CCNG1;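 further: natural log of median RNA to DNA barcode read ratio; higher means stronger binding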
experimental_readout: interaction score

| binder | interaction score |
| --- | --- |
| DKNAQLKQENAELEQEIAELEWEIAQLEQ [O1-bA] | -1.59 |

Q: Given the binder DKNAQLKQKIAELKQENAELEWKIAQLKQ [O6-bA] , what is its reported interaction score?
A: 1.39

Q: Given the binder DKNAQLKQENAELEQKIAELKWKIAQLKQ [O10-bA] , what is its reported interaction score?
A: 0.126

Q: Given the binder DEIAQLEQENAELEQKIAELKWENAQLEQ [O15-bA] , what is its reported interaction score?
A: -0.714
